Experiment: Lippert-Mataga analysis of excited state dipole moments
Format: physicochemical
Settings: semi-empirically calculated using the Lippert-Mataga equation
Experimental: The calculated HOMOs/LUMOs indicate that the strong solvatofluorochromism arises from an ICT mechanism, whereby the ground state has significant electron localization on the donor side of the molecule whereas the electron density shifts to the acceptor moiety in the excited state. To more directly quantify the strong ICT character of the TTz dyes, the excited-state dipole moments were calculated using the Lippert-Mataga equation (Eq 1): […]
We begin with a simple list: items and their reported Change in Dipole Δμ.
Give your result in D as a bare value.

Look over these answered cases.
CCCCN(CCCC)c1ccc(-c2nc3sc(-c4ccncc4)nc3s2)cc1	15.9
O=C(O)c1ccc(-c2nc3sc(-c4ccc(N(c5ccccc5)c5ccccc5)cc4)nc3s2)cc1	13.0
c1ccc(N(c2ccccc2)c2ccc(-c3nc4sc(-c5ccncc5)nc4s3)cc2)cc1	14.6

API: the following record is the query input.
[in] Entry under review: O=Cc1ccc(-c2nc3sc(-c4ccc(N(c5ccccc5)c5ccccc5)cc4)nc3s2)cc1 . Reported Change in Dipole Δμ?
[out] 18.0

---

Test: Lippert-Mataga analysis of excited state dipole moments
Format: physicochemical
Details: semi-empirically calculated using the Lippert-Mataga equation
Procedure: The calculated HOMOs/LUMOs indicate that the strong solvatofluorochromism arises from an ICT mechanism, whereby the ground state has significant electron localization on the donor side of the molecule whereas the electron density shifts to the acceptor moiety in the excited state. To more directly quantify the strong ICT character of the TTz dyes, the excited-state dipole moments were calculated using the Lippert-Mataga equation (Eq 1): […]
Parameter measured: Excited State Dipole μ*

Look over these answered cases.
O=Cc1ccc(-c2nc3sc(-c4ccc(N(c5ccccc5)c5ccccc5)cc4)nc3s2)cc1 [Ph2N-TTz-CHO]	24.9 D
c1ccc(N(c2ccccc2)c2ccc(-c3nc4sc(-c5ccncc5)nc4s3)cc2)cc1 [Ph2N-TTz-Py]	20.8 D
O=C(O)c1ccc(-c2nc3sc(-c4ccc(N(c5ccccc5)c5ccccc5)cc4)nc3s2)cc1 [Ph2N-TTz-COOH]	21.3 D

API: the following record is the query input.
[in] Entry under review: CCCCN(CCCC)c1ccc(-c2nc3sc(-c4ccncc4)nc3s2)cc1 [Bu2N-TTz-Py] . Reported Excited State Dipole μ*?
[out] 24.3 D
